- Tested on: Phytophthora infestans
- Format: in vivo
- CONDITION CONTEXT: tomato plants, protective, active compound concentration 500 ppm, evaluation 7 days after inoculation
ENDPOINT: efficacy (%)
Answers are plain numbers, in %.

Would you mind listing efficacy for each of the following compounds?
1. COc1ccccc1C(=O)C=C(Cl)c1csc(C2CCN(C(=O)Cn3nc(C(F)(F)F)cc3C)CC2)n1 (mixture of isomers)
2. O=C(/C=C/c1csc(C2CCN(C(=O)Cn3nc(C(F)F)cc3C(F)F)CC2)n1)c1cccc(F)c1 [Compound I-41]
3. O=C(/C=C/c1csc(C2CCN(C(=O)Cn3nc(C(F)F)cc3C(F)F)CC2)n1)c1cccc(F)c1 [Compound I-52]
4. O=C(/C=C/c1csc(C2CCN(C(=O)Cn3nc(C(F)F)cc3C(F)F)CC2)n1)c1ccccc1Cl
5. O=C(/C=C/c1csc(C2CCN(C(=O)Cn3nc(C(F)F)cc3C(F)F)CC2)n1)C1CCCC1

Result:
93
95
98
100
90

Would you mind listing efficacy for each of the following compounds?
1. O=C(/C=C/c1csc(C2CCN(C(=O)Cn3nc(C(F)F)cc3C(F)F)CC2)n1)c1c(F)cccc1F
2. CON=C(CC1CCCCC1)c1csc(C2CCN(C(=O)Cn3nc(C(F)F)cc3C(F)F)CC2)n1
3. O=C(/C=C/c1csc(C2CCN(C(=O)Cn3nc(C(F)F)cc3C(F)F)CC2)n1)c1ccccc1
4. O=C(CC1CCCCC1)c1csc(C2CCN(C(=O)Cn3nc(C(F)F)cc3C(F)F)CC2)n1
5. Cc1cccc(C(=O)/C=C/c2csc(C3CCN(C(=O)Cn4nc(C(F)F)cc4C(F)F)CC3)n2)c1
6. O=C(/C=C/c1csc(C2CCN(C(=O)Cn3nc(C(F)F)cc3C(F)F)CC2)n1)c1cc(F)ccc1Cl

Result:
1. 100
2. 95
3. 95
4. 94
5. 95
6. 95

Problem: So what's the measured efficacy for this one? CC(C)(C)C(=O)/C=C/c1csc(C2CCN(C(=O)Cn3nc(C(F)F)cc3C(F)F)CC2)n1
Result: 94

====

Consider the following compounds; for each one, report its log P [a].
- CONDITION CONTEXT: acidic range, pH 2.7, 0.1% aqueous formic acid/acetonitrile

Recorded log P [a], per entry:
COMPOUND: Cc1cccc(C)c1C(=O)/C=C/c1csc(C2CCN(C(=O)Cn3nc(C(F)F)cc3C(F)F)CC2)n1 [Compound I-63]
log P [a]: 3.65^[a];

COMPOUND: COc1cccc(OC)c1C(=O)/C=C/c1csc(C2CCN(C(=O)Cn3nc(C(F)F)cc3C(F)F)CC2)n1 [Compound I-39]
log P [a]: 3.04^[a]

COMPOUND: Cc1cc(C(F)(F)F)nn1CC(=O)N1CCC(c2nc(C#CC(=O)c3cccc4ccccc34)cs2)CC1 [Compound I-3]
log P [a]: 4.25^[a]

COMPOUND: Cc1cccc(CC(=O)c2csc(C3CCN(C(=O)Cn4nc(C(F)F)cc4C(F)F)CC3)n2)c1C [Compound I-59]
log P [a]: 3.71^[a]

Would you mind listing log P [a] for each of the following compounds?
1. Cc1cc(C(F)(F)F)nn1CC(=O)N1CCC(c2nc(C#CC(=O)C(C)(C)C)cs2)CC1 [Compound I-8]
2. Cc1cc(C(F)(F)F)nn1CC(=O)N1CCC(c2nc(C#CC(=O)c3ccccc3)cs2)CC1 [Compound I-1]
3. O=C(/C=C/c1csc(C2CCN(C(=O)Cn3nc(C(F)F)cc3C(F)F)CC2)n1)C1CCCC1 [Compound I-49]

Result:
["3.68^[a]", "3.58^[a]", "3.52^[a]"]

====

Consider the following molecules; for each one, report its log P [a].
- CONDITION CONTEXT: acidic range, pH 2.7, 0.1% aqueous formic acid/acetonitrile

MOLECULE: O=C(CC1CCCCC1)c1csc(C2CCN(C(=O)Nc3cc(C(F)F)ccc3C(F)F)CC2)n1
MEASUREMENT: 4.3^[a];

MOLECULE: Cc1cc(C(F)(F)F)nn1CC(=O)N1CCC(c2nc(C(Cl)=CC(=O)c3ccccc3)cs2)CC1 (mixture of isomers)
MEASUREMENT: 4^[a]

MOLECULE: O=C(/C=C/c1c(F)cccc1F)c1csc(C2CCN(C(=O)Cn3nc(C(F)F)cc3C(F)F)CC2)n1
MEASUREMENT: 3.68^[a];

MOLECULE: Cc1cc(C(F)(F)F)nn1CC(=O)N1CCC(c2nc(C#CC(=O)c3ccccc3Cl)cs2)CC1
MEASUREMENT: 3.79^[a]

Would you mind listing log P [a] for each of the following molecules?
1. Cc1cc(C(F)(F)F)nn1CC(=O)N1CCC(c2nc(CCC(=O)c3ccccc3Cl)cs2)CC1
2. Cc1ccccc1C(=O)/C=C/c1csc(C2CCN(C(=O)Cn3nc(C(F)F)cc3C(F)F)CC2)n1
3. Cc1cc(C(F)(F)F)nn1CC(=O)N1CCC(c2nc(C(=O)Cc3ccccc3Br)cs2)CC1

Result:
1. 3.6^[a];
2. 3.56^[a]
3. 3.67^[a];

====

- TEST METHOD NOTES: physchem
- CONDITION CONTEXT: pH 7.8
Consider the following compounds; for each one, report its chromatographic logP.
Give bare numbers.

STRUCTURE SMILES: O=C(CC1CCCCC1)c1csc(C2CCN(C(=S)Cn3nc(C(F)F)cc3C(F)F)CC2)n1
ENDPOINT: chromatographic logP
MEASUREMENT: 4.56
//
STRUCTURE SMILES: Cc1ccc(Cl)cc1NC(=O)N1CCC(c2nc(C(=O)CC3CCCCC3)cs2)CC1
ENDPOINT: chromatographic logP
MEASUREMENT: 4.55

Here is the next item to consider.
Problem: So what's the measured chromatographic logP for this one? CCOc1ccccc1C(=O)CCc1csc(C2CCN(C(=O)Cn3nc(C(F)(F)F)cc3C)CC2)n1
Result: 3.68

====

- CONDITION CONTEXT: acidic range, pH 2.7, 0.1% aqueous formic acid/acetonitrile
ENDPOINT: log P [a]

STRUCTURE SMILES: COc1ccccc1C(=O)C#Cc1csc(C2CCN(C(=O)Cn3nc(C(F)(F)F)cc3C)CC2)n1
ENDPOINT: log P [a]
MEASUREMENT: 3.35^[a];
--
STRUCTURE SMILES: Cc1cc(C(F)(F)F)nn1CC(=O)N1CCC(c2nc(C(=O)Cc3cccc4ccccc34)cs2)CC1
ENDPOINT: log P [a]
MEASUREMENT: 3.87^[a]
--
STRUCTURE SMILES: O=C(/C=C/c1csc(C2CCN(C(=O)Cn3nc(C(F)F)cc3C(F)F)CC2)n1)c1cc(F)ccc1Cl
ENDPOINT: log P [a]
MEASUREMENT: 3.64^[a];
--
STRUCTURE SMILES: O=C(/C=C/c1csc(C2CCN(C(=O)Cn3nc(C(F)F)cc3C(F)F)CC2)n1)c1c(F)cccc1Cl
ENDPOINT: log P [a]
MEASUREMENT: 3.54^[a];
--
STRUCTURE SMILES: COc1ccc(C(=O)/C=C/c2csc(C3CCN(C(=O)Cn4nc(C(F)F)cc4C(F)F)CC3)n2)c(F)c1
ENDPOINT: log P [a]
MEASUREMENT: 3.45^[a]

Here is the next item to consider.
Problem: So what's the measured log P [a] for this one? COc1ccc(C(=O)C#Cc2csc(C3CCN(C(=O)Cn4nc(C(F)(F)F)cc4C)CC3)n2)cc1
Result: 3.54^[a]

====

- CONDITION CONTEXT: acidic range, pH 2.7, 0.1% aqueous formic acid/acetonitrile
ENDPOINT: log P [a]

Recorded log P [a], per entry:
COMPOUND: Cc1cc(C(F)(F)F)nn1CC(=O)N1CCC(c2nc(C#CC(=O)c3ccc(Cl)cc3Cl)cs2)CC1 [Compound I-6]
log P [a]: 4.31^[a]
//
COMPOUND: CO/N=C(/Cc1cccc(C)c1C)c1csc(C2CCN(C(=O)Cn3nc(C(F)F)cc3C(F)F)CC2)n1 [Compound I-61]
log P [a]: 4.33^[a]
//
COMPOUND: O=C(/C=C/c1csc(C2CCN(C(=O)Cn3nc(C(F)F)cc3C(F)F)CC2)n1)c1ccc(F)cc1Br [Compound I-34]
log P [a]: 3.7^[a];
//
COMPOUND: O=C(/C=C/c1csc(C2CCN(C(=O)Cn3nc(C(F)F)cc3C(F)F)CC2)n1)c1cccc(F)c1 [Compound I-52]
log P [a]: 3.35^[a]
//
COMPOUND: O=C(/C=C/c1csc(C2CCN(C(=O)Cn3nc(C(F)F)cc3C(F)F)CC2)n1)c1cccc2ccccc12 [Compound I-46]
log P [a]: 2.84^[a]
//
COMPOUND: O=C(/C=C/c1csc(C2CCN(C(=O)Cn3nc(C(F)F)cc3C(F)F)CC2)n1)c1c(Cl)cccc1Cl [Compound I-43]
log P [a]: 3.7^[a]
//
COMPOUND: Cc1cc(C(F)(F)F)nn1CC(=O)N1CCC(c2nc(C#CC(=O)c3cccs3)cs2)CC1 [Compound I-9]
log P [a]: 3.29^[a]
//
COMPOUND: O=C(/C=C/c1csc(C2CCN(C(=O)Cn3nc(C(F)F)cc3C(F)F)CC2)n1)c1ccccc1 [Compound I-37]
log P [a]: 3.31^[a];
//
COMPOUND: O=C(/C=C/c1csc(C2CCN(C(=O)Cn3nc(C(F)F)cc3C(F)F)CC2)n1)c1ccccc1I [Compound I-33]
log P [a]: 3.65^[a];
//
COMPOUND: COc1ccccc1C(=O)CCc1csc(C2CCN(C(=O)Cn3nc(C(F)(F)F)cc3C)CC2)n1 [Compound I-19]
log P [a]: 3.34^[a]

Would you mind listing log P [a] for each of the following compounds?
1. O=C(/C=C/c1csc(C2CCN(C(=O)Cn3nc(C(F)F)cc3C(F)F)CC2)n1)c1ccccc1Cl [Compound I-42]
2. Cc1cccc(C(=O)/C=C/c2csc(C3CCN(C(=O)Cn4nc(C(F)F)cc4C(F)F)CC3)n2)c1 [Compound I-38]
3. O=C(/C=C/c1csc(C2CCN(C(=O)Cn3nc(C(F)F)cc3C(F)F)CC2)n1)c1ccc(F)cc1 [Compound I-40]
4. Cc1cc(C(F)(F)F)nn1CC(=O)N1CCC(c2nc(C#CC(=O)c3ccco3)cs2)CC1 [Compound I-10]
5. C#CCOc1ccccc1C(=O)/C=C/c1csc(C2CCN(C(=O)Cn3nc(C(F)F)cc3C(F)F)CC2)n1 [Compound I-55]

Result:
["3.51^[a]", "3.64^[a];", "3.43^[a]", "2.92^[a]", "3.28^[a]"]
